From: paper PMC7600679

Test system: S. aureus 272123 (MRSA)
Experiment: Real-time ethidium bromide accumulation (efflux pump inhibition)
Format: cell-based, Staphylococcus aureus
Conditions: compounds at ¼ MIC (3 at 12.5 µM), VER at 25 µM, EB 1 μg/mL, minute 30
VALUE_TYPE: Relative fluorescence index (RFI)
Form: value (number only, do not type unit).

Reported Relative fluorescence index (RFI) of [Ag+].[Ag+].[O-]C(=Cc1nc2ccccc2o1)C(F)(F)F.[O-]C(=Cc1nc2ccccc2o1)C(F)(F)F [Compound 11] : −0.11

Reported Relative fluorescence index (RFI) of [Fe+3].[O-]C(=Cc1nc2ccccc2o1)C(F)(F)F.[O-]C(=Cc1nc2ccccc2o1)C(F)(F)F.[O-]C(=Cc1nc2ccccc2o1)C(F)(F)F [Compound 12] : −0.02

Reported Relative fluorescence index (RFI) of O=C(Cc1nc2ccccc2o1)C(F)(F)Cl [Compound 2] : −0.07

Reported Relative fluorescence index (RFI) of [O-]C(=Cc1nc2ccccc2o1)C(F)(F)F.[O-]C(=Cc1nc2ccccc2o1)C(F)(F)F.[Pd+2] [Compound 10] : 0

Reported Relative fluorescence index (RFI) of O=C(Cc1nc2ccccc2o1)C(F)F [Compound 3] : 0.13

Reported Relative fluorescence index (RFI) of [O-]C(=Cc1nc2ccccc2o1)C(F)(F)F.[O-]C(=Cc1nc2ccccc2o1)C(F)(F)F.[Zn+2] [Compound 4] : −0.11

Reported Relative fluorescence index (RFI) of [O-]C(=Cc1nc2ccccc2o1)C(F)F.[O-]C(=Cc1nc2ccccc2o1)C(F)F.[Zn+2] [Compound 6] : −0.02

====

Assign Relative fluorescence index (RFI) to each entry below.
Tested on: S. aureus 272123 (MRSA)
Assay: Real-time ethidium bromide accumulation (efflux pump inhibition)
Type: cell-based, Staphylococcus aureus
Details: compounds at ¼ MIC (3 at 12.5 µM), VER at 25 µM, EB 1 μg/mL, minute 30
Form: value (number only, do not type unit).

Reported Relative fluorescence index (RFI) of O.O.[Ni+2].[O-]C(=Cc1nc2ccccc2o1)C(F)(F)F.[O-]C(=Cc1nc2ccccc2o1)C(F)(F)F [Compound 8] : −0.01

Reported Relative fluorescence index (RFI) of [O-]C(=Cc1nc2ccccc2o1)C(F)(F)Cl.[O-]C(=Cc1nc2ccccc2o1)C(F)(F)Cl.[Zn+2] [Compound 5] : −0.13

Reported Relative fluorescence index (RFI) of O=C(Cc1nc2ccccc2o1)C(F)(F)F [Compound 1, 2-trifluoroacetonylbenzoxazole] : −0.14

Reported Relative fluorescence index (RFI) of [Cu+2].[O-]C(=Cc1nc2ccccc2o1)C(F)(F)F.[O-]C(=Cc1nc2ccccc2o1)C(F)(F)F [Compound 7] : −0.01

====

System: S. aureus 272123 (MRSA)
Assay: Minimum inhibitory concentration (broth microdilution, CLSI)
Assay type: cell-based, Staphylococcus aureus
Details: Staphylococcus aureus, 18 h, visual inspection
Assign MIC to each entry below.
Could you give the number and then its unit, please?

Reported MIC of "O=C(Cc1nc2ccccc2o1)C(F)(F)Cl" : 3.12 µM

Reported MIC of "O=C(Cc1nc2ccccc2o1)C(F)(F)F" : 12.5 µM

Reported MIC of "O=C(Cc1nc2ccccc2o1)C(F)F" : 50 µM

Reported MIC of "FC(F)(F)C1=Cc2oc3ccccc3[n+]2[Mg-2]2([O]1)[O]C(C(F)(F)F)=Cc1oc3ccccc3[n+]12" : 6.25 µM

====

System: E. coli AG100 A
Assay: Minimum inhibitory concentration (broth microdilution, CLSI)
Assay type: cell-based, Escherichia coli
Settings: E. coli AG100 A (AcrAB-TolC deleted); 18 h, visual inspection
Assign MIC to each entry below.
Give your result in µM as a bare value.

Summary: [O-]C(=Cc1nc2ccccc2o1)C(F)F.[O-]C(=Cc1nc2ccccc2o1)C(F)F.[Zn+2] [Compound 6] , E. coli AG100 A, MIC = 12.5

Summary: [Ag+].[Ag+].[O-]C(=Cc1nc2ccccc2o1)C(F)(F)F.[O-]C(=Cc1nc2ccccc2o1)C(F)(F)F [Compound 11] , E. coli AG100 A, MIC = 50

Summary: [Cu+2].[O-]C(=Cc1nc2ccccc2o1)C(F)(F)F.[O-]C(=Cc1nc2ccccc2o1)C(F)(F)F [Compound 7] , E. coli AG100 A, MIC = 12.5

Summary: [O-]C(=Cc1nc2ccccc2o1)C(F)(F)Cl.[O-]C(=Cc1nc2ccccc2o1)C(F)(F)Cl.[Zn+2] [Compound 5] , E. coli AG100 A, MIC = 12.5

Summary: [Fe+3].[O-]C(=Cc1nc2ccccc2o1)C(F)(F)F.[O-]C(=Cc1nc2ccccc2o1)C(F)(F)F.[O-]C(=Cc1nc2ccccc2o1)C(F)(F)F [Compound 12] , E. coli AG100 A, MIC = 50

Summary: [O-]C(=Cc1nc2ccccc2o1)C(F)(F)F.[O-]C(=Cc1nc2ccccc2o1)C(F)(F)F.[Zn+2] [Compound 4] , E. coli AG100 A, MIC = 25

Summary: O.O.[Ni+2].[O-]C(=Cc1nc2ccccc2o1)C(F)(F)F.[O-]C(=Cc1nc2ccccc2o1)C(F)(F)F [Compound 8] , E. coli AG100 A, MIC = 25

====

System: MRC-5 human embryonal lung fibroblast cell line
Assay: Cytotoxicity assay (MTT)
Assay type: cell-based
Conditions: 24 h
VALUE_TYPE: Cytotoxic effect (class in words)

In [3]: df
Out[3]:
                  compound_structure_string           test_value
0  [Cu+2].[O-]C(=Cc1nc2ccccc2o1)C(F)(F)F.[O-]C(=Cc1nc2ccccc2o1)C(F)(F)F  weak (IC50: 61–100)
1  [O-]C(=Cc1nc2ccccc2o1)C(F)(F)F.[O-]C(=Cc1nc2ccccc2o1)C(F)(F)F.[Pd+2]  weak (IC50: 61–100)

====

Tested on: MRC-5 human embryonal lung fibroblast cell line
Assay: Cytotoxicity assay (MTT)
Format: cell-based
Conditions: 24 h
VALUE_TYPE: Cytotoxic effect (class in words)

In [3]: df
Out[3]:
                  compound_structure_string                         value_type           test_value
0  FC(F)(F)C1=Cc2oc3ccccc3[n+]2[Mg-2]2([O]1)[O]C(C(F)(F)F)=Cc1oc3ccccc3[n+]12  Cytotoxic effect (class in words)   no (IC50 > 100 µM)
1  O.O.[Ni+2].[O-]C(=Cc1nc2ccccc2o1)C(F)(F)F.[O-]C(=Cc1nc2ccccc2o1)C(F)(F)F  Cytotoxic effect (class in words)  strong (IC50: 0–30)
2              O=C(Cc1nc2ccccc2o1)C(F)(F)Cl  Cytotoxic effect (class in words)   no (IC50 > 100 µM)
3  [O-]C(=Cc1nc2ccccc2o1)C(F)F.[O-]C(=Cc1nc2ccccc2o1)C(F)F.[Zn+2]  Cytotoxic effect (class in words)  strong (IC50: 0–30)
4  [O-]C(=Cc1nc2ccccc2o1)C(F)(F)F.[O-]C(=Cc1nc2ccccc2o1)C(F)(F)F.[Zn+2]  Cytotoxic effect (class in words)  strong (IC50: 0–30)

Shifting focus to the molecule that follows.
Reported Cytotoxic effect (class in words) of "O=C(Cc1nc2ccccc2o1)C(F)(F)F" : no (IC50 > 100 µM)

====

Tested on: E. coli AG100
Test: Resistance modulation (MIC reduction) assay with CIP and TET
Format: cell-based, Escherichia coli
Settings: compound at ¼ MIC, value is the MIC of ciprofloxacin
Description: The resistance modulation effects of compounds with ciprofloxacin (CIP) and tetracycline (TET) antibiotics were evaluated by the MIC reduction method on the Gram-negative E. coli AG100, AG100 A, and the Gram-positive S. aureus ATCC and MRSA strains. […]
Assign CIP MIC in combination with compounds to each entry below.
Give your result in µM as a bare value.

Reported CIP MIC in combination with compounds of "[Fe+3].[O-]C(=Cc1nc2ccccc2o1)C(F)(F)F.[O-]C(=Cc1nc2ccccc2o1)C(F)(F)F.[O-]C(=Cc1nc2ccccc2o1)C(F)(F)F" : 0.016

Reported CIP MIC in combination with compounds of "O.O.[Ni+2].[O-]C(=Cc1nc2ccccc2o1)C(F)(F)F.[O-]C(=Cc1nc2ccccc2o1)C(F)(F)F" : 0.008

Reported CIP MIC in combination with compounds of "[Cu+2].[O-]C(=Cc1nc2ccccc2o1)C(F)(F)F.[O-]C(=Cc1nc2ccccc2o1)C(F)(F)F" : 0.016

Reported CIP MIC in combination with compounds of "[O-]C(=Cc1nc2ccccc2o1)C(F)(F)Cl.[O-]C(=Cc1nc2ccccc2o1)C(F)(F)Cl.[Zn+2]" : 0.016

Reported CIP MIC in combination with compounds of "O=C(Cc1nc2ccccc2o1)C(F)F" : 0.016

Reported CIP MIC in combination with compounds of "FC(F)(F)C1=Cc2oc3ccccc3[n+]2[Mg-2]2([O]1)[O]C(C(F)(F)F)=Cc1oc3ccccc3[n+]12" : 0.008
